Ref: paper PMC5681660

measurement_target: UniProt Q14973
Sequence (Q14973 whole entry): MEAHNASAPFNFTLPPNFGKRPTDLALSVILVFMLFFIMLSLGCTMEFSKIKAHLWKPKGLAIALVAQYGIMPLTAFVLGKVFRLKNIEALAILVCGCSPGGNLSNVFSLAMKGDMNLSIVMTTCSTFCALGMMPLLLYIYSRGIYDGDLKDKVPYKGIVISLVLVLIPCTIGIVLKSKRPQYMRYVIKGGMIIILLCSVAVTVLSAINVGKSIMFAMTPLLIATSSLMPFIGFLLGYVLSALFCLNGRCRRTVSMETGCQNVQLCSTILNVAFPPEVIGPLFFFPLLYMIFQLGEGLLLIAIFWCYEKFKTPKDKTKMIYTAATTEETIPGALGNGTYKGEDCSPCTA
measurement_notes: Screening fluorescent competitive Myrcludex B-FITC binding assay (96-well, 10 µM drug)
Structures can show the parent of a compound that is named as a salt.
Listed below: B-score binding assay values for each entry.
Answer field: number only, no words.

Record excerpt, results attached:
compound="CCN(CC)CCCC(C)Nc1ccnc2cc(Cl)ccc12 (stereo not drawn) [Chloroquine diphosphate]" quantity_name="B-score binding assay" value_measured=0.002
compound="CNCC[C@@H](Oc1cccc2ccccc12)c1cccs1.Cl [(R)-Duloxetine hydrochloride]" quantity_name="B-score binding assay" value_measured=-0.619
compound="CCC(=O)O[C@H]1CC[C@H]2[C@@H]3CCC4=CC(=O)CC[C@]4(C)[C@H]3CC[C@]12C [Testosterone propionate]" quantity_name="B-score binding assay" value_measured=0.252
compound="O=[N+]([O-])O[C@H]1CO[C@H]2[C@@H]1OC[C@H]2O[N+](=O)[O-] [Isosorbide dinitrate]" quantity_name="B-score binding assay" value_measured=0.166
compound="NC(=O)C(c1ccccc1)(c1ccccc1)[C@@H]1CCN(CCc2ccc3c(c2)CCO3)C1 [Darifenacin hydrobromide]" quantity_name="B-score binding assay" value_measured=0.023

Provide only the value of recorded B-score binding assay for CCCSc1ccc2nc(NC(=O)OC)[nH]c2c1 [Albendazole]
0.993

Name the recorded B-score binding assay of the compound listed here: CC(C)c1cccc(C(C)C)c1O [Propofol]
-0.036

Provide one value: measured B-score binding assay of Cc1cccc(C)c1N=C1NCCCS1 [Xylazine]
-0.164

Please indicate B-score binding assay recorded for CCC(=O)O[C@@](Cc1ccccc1)(c1ccccc1)[C@@H](C)CN(C)C [Levopropoxyphene napsylate]
0

Check the records and state B-score binding assay for C[C@]12C[C@H]3S[C@H]3C[C@@H]1CC[C@@H]1[C@@H]2CC[C@]2(C)[C@@H](O)CC[C@@H]12 [Epitiostanol]
0.911

Quick one: give measured B-score binding assay for CN[C@H](CC(C)C)C(=O)N[C@H]1C(=O)N[C@@H](CC(N)=O)C(=O)N[C@H]2C(=O)N[C@H]3C(=O)N[C@H](C(=O)N[C@H](C(=O)O)c4cc(O)cc(O)c4-c4cc3ccc4O)[C@H](O)c3ccc(c(Cl)c3)Oc3cc2cc(c3O[C@@H]2O[C@H](CO)[C@@H](O)[C@H](O)[C@H]2O[C@H]2C[C@](C)(N)[C@H](O)[C@H](C)O2)Oc2ccc(cc2Cl)[C@H]1O [Vancomycin hydrochloride]
1.401

Please indicate B-score binding assay recorded for CNS(=O)(=O)Cc1ccc2[nH]cc(CCN(C)C)c2c1 [Sumatriptan succinate]
0.075

Return value of B-score binding assay for input C[C@]12CC[C@@H](O)C[C@H]1CC[C@@H]1[C@@H]2CC[C@]2(C)C(=O)CC[C@@H]12 [3-alpha-Hydroxy-5-beta-androstan-17-one] , no commentary.
0.051

Give the reported value of B-score binding assay for this record: N[C@@H]1C[C@H]1c1ccccc1 [Tranylcypromine hydrochloride]
1.095

Read the entry CN(C)CCCN1c2ccccc2Sc2ccccc21 [Promazine hydrochloride] and write its reported B-score binding assay.
-0.725
